pIC50: −log10 of the molar value.
Published pIC50 for SYK kinase (Homo sapiens, UniProt P43405), assembled from different documents, is shown next.

Consider the following illustrative entries.
{"columns": ["MOLECULE", "pIC50"],
 "data": [
  ["Cc1cc(-c2cc3nccnc3c(O[C@@H]3CCOC3)n2)ccc1N(C)C", 7.49],
  ["CC1(C)C(=O)Nc2cc(Nc3nc4c(N5CC[C@H](N)C5)nccn4n3)ccc21", "5.52 to 6.52"],
  ["COc1cc(Nc2cc(Oc3ccc(NC(=O)Nc4cc(C(C)(C)C)cc(S(C)(=O)=O)c4OC)c4ccccc34)ccn2)cc(C(=O)NCCN2CC[S+]([O-])CC2)c1", 7.00]
]}

// lookup pIC50 | system=SYK kinase (Homo sapiens, UniProt P43405) | key= N#CC1(c2ccc(Nc3nc4c(-c5cn[nH]c5)nccn4n3)cc2)CC1
6.52 to 7.00

// lookup pIC50 | system=SYK kinase (Homo sapiens, UniProt P43405) | key= Nc1ccccc1-c1nc(Nc2cnn(C3CCOCC3)c2)c2n[nH]cc2n1
6.00 to 7.00

// lookup pIC50 | system=SYK kinase (Homo sapiens, UniProt P43405) | key= CNC(=O)N1CCO[C@H](COc2nc(-c3ccc(C(C)(C)C#N)cc3)cc3nccnc23)C1
7.38

// lookup pIC50 | system=SYK kinase (Homo sapiens, UniProt P43405) | key= CN(C)c1ccc(-c2cc3nccnc3c(OC[C@@H]3CN(C(=O)[C@H]4CC[C@H](O)CC4)CCO3)n2)cc1
7.00 to 9.00

// lookup pIC50 | system=SYK kinase (Homo sapiens, UniProt P43405) | key= Cc1ccc(Nc2cccc(-c3cnc(-c4ccc5[nH]ccc5c4)o3)n2)nc1
5.00 to 6.00
